Assay: reduction of polyQ htt aggregates in cells – imaging, exon1htt(103Q)mCFP cells, high-content imaging, primary screen (AID 483);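 also: compound exposure lasted 3 days before fixation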
Conditions: exon1htt(103Q)mCFP cell line, aggregate imaging, at 2 µM; active compounds read high
I'd be grateful if you could share measured inhibition of aggregation for these entries.
Just the number please, in %, no unit attached.

Value lookup for inhibition of aggregation; key = COc1cccc(-c2noc(CCC(=O)NC3CCCCC3)n2)c1 -6.8

Value lookup for inhibition of aggregation; key = COc1cc(C(=O)Nc2ccc3c(c2)C(=O)N(CCC(=O)O)C3=O)cc(OC)c1OC 4.8

Value lookup for inhibition of aggregation; key = Cc1ccc(S(=O)(=O)n2nc(OC(=O)c3ccco3)cc2N)cc1 -12

Value lookup for inhibition of aggregation; key = COc1cccc(-n2c(C)nc3c(cnn3-c3ccc(C)cc3)c2=O)c1 2.3

Value lookup for inhibition of aggregation; key = COc1ccccc1C1/C(=C(\O)c2c(C)nc3c(C)cccn23)C(=O)C(=O)N1CCCN(C)C (stereo not given) -6.8

Value lookup for inhibition of aggregation; key = N#Cc1cc2sc3nnc(-c4ccncc4)n3c2cc1C#N -17.6

Value lookup for inhibition of aggregation; key = COc1ccc(CCn2c(N)c(C#N)c3nc4ccccc4nc32)cc1OC -8

Value lookup for inhibition of aggregation; key = O=C(c1ccccc1)c1ccc(N2CCOCC2)c(NC(=O)c2ccco2)c1 -8.7

Value lookup for inhibition of aggregation; key = Cc1ccccc1NC(=O)N1C2CCCC1CC(NC(=O)C1CC1)C2 (stereo not given) -5.1

Value lookup for inhibition of aggregation; key = O=C(Nc1ccc(CN2CCCCC2)cc1)c1ccc2c(c1)OCO2 15.1

Value lookup for inhibition of aggregation; key = COc1ccc(S(=O)(=O)NC2CCCCC2)c(C)c1C -3

Value lookup for inhibition of aggregation; key = COc1cc(-c2c(C#N)c(N)nc3c2CCCC3)cc(OC)c1OC 0.1

Value lookup for inhibition of aggregation; key = CCOCCCNC(=O)C1CCN(C(=O)Nc2ccc(Cl)cc2)CC1 -2.7

Value lookup for inhibition of aggregation; key = CCn1c(SCC(=O)Nc2nccs2)nnc1-c1ccncc1 -8.7

Value lookup for inhibition of aggregation; key = O=C(NC1CCCC1)c1ccc(S(=O)(=O)N2CCCC2)cc1 1.5

Value lookup for inhibition of aggregation; key = Cc1ccc(C(=O)CCC2CCCC2=O)cc1 (stereo not given) -2.7

Value lookup for inhibition of aggregation; key = COC(=O)c1[nH]c2ccccc2c1NC(=O)CN1CCC(C(N)=O)(N2CCCCC2)CC1 6.6

Value lookup for inhibition of aggregation; key = CCOC(=O)N1CCN(S(=O)(=O)c2ccc(Br)s2)CC1 -13.3

Value lookup for inhibition of aggregation; key = Cc1ccc(-c2nn3c(=O)c(C)nnc3s2)cc1 -0.2

Value lookup for inhibition of aggregation; key = CCC(C)NC(=O)C1(C)CCC(=O)N1Cc1ccccc1OC (stereo not given) -3.9

Value lookup for inhibition of aggregation; key = CCC(=O)N1CCc2cc(S(=O)(=O)CCC(=O)Nc3nc(C)cs3)ccc21 9.7

Value lookup for inhibition of aggregation; key = COc1ccc(-n2ncc3c(NCc4ccc5c(c4)OCO5)ncnc32)cc1 9.7

Value lookup for inhibition of aggregation; key = Cc1ccc(-n2c(=O)c3sccc3n(CC(=O)NCc3ccco3)c2=O)cc1 21.9

Value lookup for inhibition of aggregation; key = O=C(CCn1c(=O)sc2ccccc21)Nc1cccnc1 20.2

Value lookup for inhibition of aggregation; key = CC1CCN(C(=O)C2CCN(S(=O)(=O)c3cnc[nH]3)CC2)CC1 22

Value lookup for inhibition of aggregation; key = CC1Oc2ccccc2N(CC(=O)N(Cc2ccccc2)Cc2ccccn2)C1=O (stereo not given) -1.2

Value lookup for inhibition of aggregation; key = O=C(Nc1cccnc1)Nc1ccc2c(c1)OCO2 -14.9

Value lookup for inhibition of aggregation; key = Cc1ccccc1Cn1nc(C)c(NC(=O)c2noc3c2CCCC3)c1C 7.3

Value lookup for inhibition of aggregation; key = COc1cccc(Nc2c(F)c(F)c(F)c(F)c2C(=O)O)c1 9.3

Value lookup for inhibition of aggregation; key = Cc1cc(SCC(N)=O)nc(SCC(=O)c2ccccc2)n1 -8.2

Value lookup for inhibition of aggregation; key = Cc1nc2ccc(S(=O)(=O)NCC(=O)O)cc2s1 -3

Value lookup for inhibition of aggregation; key = Cc1cccc(OCC(=O)N2CCC(c3ccccc3)C2)c1 (stereo not given) -13.6

Value lookup for inhibition of aggregation; key = COCC(=O)N(Cc1nc2ccccc2c(=O)[nH]1)Cc1cccs1 -6.1

Value lookup for inhibition of aggregation; key = COc1ccc(-n2c(SCCC(=O)O)nnc2-c2ccncc2)cc1 -2.3

Value lookup for inhibition of aggregation; key = Cc1ccc(S(=O)(=O)NCCCCC(NC(=O)OC(C)(C)C)C(=O)O)cc1 (stereo not given) (tested in a mixture with another compound) 5.6
